Source of measurements: patent EP2818471A1

Catalogue of Emax values
# Tested on: beta-TC6 cells
# experiment: Insulin HTRF assay, relative activity Ar normalized to sunitinib
# Assay type: cell-based
# recorded_conditions: Mus musculus, normalized to positive control sunitinib (5 µM = 100%), Table 10

{"compound": "CS(=O)(=O)Nc1cccc(-c2ccc3nnc(-c4ccccc4)n3c2)c1 [compound 169]", "readout_value": "50 to 100%"}
{"compound": "CS(=O)(=O)c1cccc(-c2ccc3nnc(-c4cccc(OC(F)(F)F)c4)n3c2)c1 [compound 193]", "readout_value": "50 to 100%"}
{"compound": "CNC(=O)c1cccc(-c2ccc3nnc(-c4ccc5c(c4)OCO5)n3c2)c1 [compound 175]", "readout_value": "20 to 50%"}
{"compound": "CN1CCN(C(=O)c2cccc(-c3cnc4cnc(-c5ccc6c(c5)OCO6)cn34)c2)CC1 [compound 355]", "readout_value": "20 to 50%"}
{"compound": "COc1cccc(-c2cn3c(NC(=O)Cc4ccsc4)cnc3cn2)c1 [compound 279]", "readout_value": "20 to 50%"}
{"compound": "COc1ccccc1CC(=O)Nc1cnc2cnc(-c3cccc(Cl)c3Cl)cn12 [compound 250]", "readout_value": "20 to 50%"}
{"compound": "Clc1ccccc1-c1ccc2nnc(-c3cscn3)n2c1 [compound 233]", "readout_value": "50 to 100%"}
{"compound": "c1ccc(-c2cnc3cnc(-c4ccsc4)cn23)cc1 [compound 296]", "readout_value": "20 to 50%"}

Now consider a different compound.
**Query** Please report the recorded Emax for COc1cc(-c2ccc3ncc(-c4cccs4)n3n2)ccc1O [compound 157] .
**Result** 20 to 50%

* * *

# Tested on: beta-TC6 cells
# experiment: Insulin HTRF assay, relative activity Ar normalized to sunitinib
# Assay type: cell-based
# recorded_conditions: Mus musculus, normalized to positive control sunitinib (5 µM = 100%), Table 10
value_kind: Emax

{"compound": "CCCNc1ccc2ncc(-c3cccc(/C=C/C(=O)O)c3)n2n1 [compound 21]", "Emax": "10 to 20%"}

**Query** Please look up its Emax: COc1ccc(-c2cn3c(-c4ccc(N(C)C)cc4)cnc3cn2)cn1 [compound 288]
**Result** 50 to 100%

**Query** Please look up its Emax: OCc1ccc(-c2ccc3ncc(-c4cccnc4)n3n2)cc1 [compound 106]
**Result** 20 to 50%

**Query** Requested field: Emax. Item: Nc1cccc(-c2cn3c(-c4cccc(F)c4)cnc3cn2)c1 [compound 384]
**Result** 20 to 50%

**Query** Value lookup for Emax; key = COc1ccc(-c2cnc3ccc(NCCCO)nn23)c(OC)c1 [compound 42]
**Result** 10 to 20%

* * *

# System: beta-TC6 cells
# experiment: Insulin HTRF assay, relative activity Ar normalized to sunitinib
# Format: cell-based
# recorded_conditions: Mus musculus, normalized to positive control sunitinib (5 µM = 100%), Table 10
# Method: For further screening of compounds derived from compounds described above for their ability to regulate insulin release an insulin HTRF® (Homogeneous Time-Resolved Fluorescence; Cisbio International, France) was used. This assay is based on two antibodies against insulin binding to different epitopes of insulin. […] The HTRF assay is carried out using Greiner 384-well 784075 assay plates. […] Finally HTRF is measured on ViewLux ultra high throughput microplate imager (PerkinElmer). […]
Each entry below carries its reported Emax.

{"molecule": "CCCNc1ccc2ncc(-c3ccc(C(=O)O)cc3)n2n1 [compound 20]", "readout_value": "10 to 20%"}

Next, consider the following molecule.
**Query** May I ask what Emax has been recorded for CC(C)Oc1cccc(-c2cn3c(-c4ccc5c(c4)OCO5)cnc3cn2)c1 [compound 310] ?
**Result** 50 to 100%

* * *

# Tested on: beta-TC6 cells
# experiment: Insulin HTRF assay, relative activity Ar normalized to sunitinib
# Assay type: cell-based
# recorded_conditions: Mus musculus, normalized to positive control sunitinib (5 µM = 100%), Table 10
Listing: Emax of selected compounds

{"compound": "CS(=O)(=O)c1ccc(-c2cnc3ccc(Cc4ccccc4)nn23)cc1 [compound 119]", "value_kind": "Emax", "readout_value": "10 to 20%"}

**Query** Fill in the blank: the reported Emax of CC(=O)c1cccc(-c2cnc3cnc(-c4cccc(F)c4)cn23)c1 [compound 410] is ____.
**Result** 20 to 50%

**Query** Quick one: Emax for CN(C)CCNC(=O)c1cccc(-c2ccc3nnc(-c4ccc5nccnc5c4)n3c2)c1 [compound 242] ?
**Result** ≥ 100%

* * *

Consider the following molecules and their measured Emax readings.
# Tested on: beta-TC6 cells
# experiment: Insulin HTRF assay, relative activity Ar normalized to sunitinib
# Assay type: cell-based
# recorded_conditions: Mus musculus, normalized to positive control sunitinib (5 µM = 100%), Table 10

{"molecule": "Oc1cccc(-c2cnc3ccc(-c4cccc5ncccc45)nn23)c1", "readout_value": "10 to 20%"}
{"molecule": "FC(F)(F)c1cccc(-c2cnc3ccc(C4CC4)nn23)c1", "readout_value": "10 to 20%"}
{"molecule": "C(#Cc1ccccn1)c1ccc2nnc(-c3ccccc3)n2c1", "readout_value": "50 to 100%"}
{"molecule": "c1cc(-c2nnc3ccc(-c4ccc(N5CCOCC5)cc4)cn23)ccn1", "readout_value": "20 to 50%"}
{"molecule": "Cc1ccccc1-c1cn2c(-c3ccc(CCC(=O)O)cc3)cnc2cn1", "readout_value": "20 to 50%"}

**Query** Which Emax value is on record for CN(C)C(=O)c1ccc(-c2ccc3nnc(-c4cccc(C(F)(F)F)c4)n3c2)cc1 ?
**Result** 20 to 50%

* * *

Here the recorded Emax is given for each entry.
# Tested on: beta-TC6 cells
# experiment: Insulin HTRF assay, relative activity Ar normalized to sunitinib
# Format: cell-based
# recorded_conditions: Mus musculus, normalized to positive control sunitinib (5 µM = 100%), Table 10

Solved entries:
{"compound": "COc1cc(CNc2ccc3ncc(-c4ccc(N(C)C)cc4)n3n2)cc(OC)c1OC [compound 49]", "measured_on": "beta-TC6 cells", "Emax": "10 to 20%"}
{"compound": "CSc1ccc(-c2cn3c(-c4cccc(CO)c4)cnc3cn2)cc1 [compound 377]", "measured_on": "beta-TC6 cells", "Emax": "20 to 50%"}
{"compound": "Cc1ccc(CNc2ccc3ncc(-c4ccc(O)cc4)n3n2)c(C)c1 [compound 52]", "measured_on": "beta-TC6 cells", "Emax": "20 to 50%"}
{"compound": "c1cncc(-c2cnc3cnc(-c4ccc(N5CCOCC5)cc4)cn23)c1 [compound 315]", "measured_on": "beta-TC6 cells", "Emax": "20 to 50%"}

# next compound below
**Query** Emax for COc1cc(-c2nnc3ccc(-c4ccc(N5CCN(C)CC5)cc4)cn23)ccc1O [compound 215] ?
**Result** 20 to 50%

* * *

# System: beta-TC6 cells
# experiment: Insulin HTRF assay, relative activity Ar normalized to sunitinib
# Type: cell-based
# recorded_conditions: Mus musculus, normalized to positive control sunitinib (5 µM = 100%), Table 10
value_kind: Emax

{"compound": "COc1cccc(CC(=O)Nc2cnc3cnc(-c4cnn(C)c4)cn23)c1 [compound 261]", "value_kind": "Emax", "readout_value": "10 to 20%"}
{"compound": "CN(C)c1cccc(-c2cnc3cnc(-c4ccc(CO)cc4)cn23)c1 [compound 344]", "value_kind": "Emax", "readout_value": "20 to 50%"}

**Query** Requested read-out: Emax. Entry: COc1ccc(-c2cnc3ccc(NCc4ccccn4)nn23)cc1OC [compound 47]
**Result** 20 to 50%

**Query** So what's the measured Emax for this one? CN(C)c1cccc(-c2cnc3cnc(-c4ccncc4)cn23)c1 [compound 342]
**Result** 20 to 50%

**Query** What does the record list as Emax for CN(C)c1ccc(-c2cnc3cnc(-c4ccc(C(=O)NCCO)cc4)cn23)cc1 [compound 290] ?
**Result** 50 to 100%

* * *

Listing of entries alongside the reported Emax.
# System: beta-TC6 cells
# experiment: Insulin HTRF assay, relative activity Ar normalized to sunitinib
# Type: cell-based
# recorded_conditions: Mus musculus, normalized to positive control sunitinib (5 µM = 100%), Table 10

Worked examples follow.
{"input_smiles": "Oc1cccc(-c2cnc3cnc(-c4cccs4)cn23)c1", "Emax": "20 to 50%"}
{"input_smiles": "CC(=O)Nc1ccc(-c2cnc3ccc(-c4ccc5c(c4)OCO5)nn23)cc1", "Emax": "≥ 100%"}
{"input_smiles": "COc1ccc(-c2ccc3nnc(-c4cscn4)n3c2)c(C)c1", "Emax": "50 to 100%"}
{"input_smiles": "Oc1ccc(-c2cn3c(-c4cccs4)cnc3cn2)cc1", "Emax": "50 to 100%"}
{"input_smiles": "Fc1cccc(-c2cn3c(-c4ccc5c(c4)OCO5)cnc3cn2)c1", "Emax": "50 to 100%"}
{"input_smiles": "COc1ccc(-c2nnc3ccc(C#Cc4ccncc4)cn23)cc1OC", "Emax": "50 to 100%"}

**Query** Quick one: Emax of CC(=O)Nc1cccc(-c2cn3c(-c4ccc(C(=O)N(C)C)cc4)cnc3cn2)c1 ?
**Result** 20 to 50%

**Query** Recorded Emax for CC(C)N1CCN(c2ccc(-c3cn4c(-c5ccc(C(=O)NC6CC6)cc5)cnc4cn3)cc2)CC1 , please?
**Result** 20 to 50%

**Query** So what does the record say about Emax for COc1ccc(-c2ccc3nnc(-c4ccc(OCCCN(C)C)cc4)n3c2)cc1OC ?
**Result** 50 to 100%
